tested on: Rabbit Psoas myofibrils (skeletal myosin ATPase); assay: Myofibril ATPase assay, rabbit psoas (skeletal) myofibrils; type: biochemical; conditions: Y75 value (no ‡ mark); rabbit psoas myofibrils
MEASURED_QUANTITY: Skeletal EC25 (µM)

P: Cc1c(CC(=O)N[C@@H](C)c2ccc(C#N)cn2)c(=O)[nH]c2cc(F)c(F)cc12
Q: Cc1c(CC(=O)N[C@@H](C)c2ncc(C3COC3)cn2)c(=O)[nH]c2ccc(F)c(F)c12 (single isomer, unassigned)
R: Cc1cc([C@@H](C)NC(=O)Cc2c(C)c3c(C)c(F)ccc3[nH]c2=O)ncc1F (single isomer, unassigned)
q: Lab note: order the above by reported Skeletal EC25, lowest first, highest last. Sort the labels as requested; that list is your answer.
a: P, R, Q
(P: 0.47 µM, R: 2.56 µM, Q: 29.36 µM)

----------
target: Porcine ventricle myofibrils (ventricular myosin ATPase) (Sus scrofa); construct: Myofibrils from porcine cardiac muscle was isolated from the left ventricle of Yucatan minipigs; tissue Exemplar Genetics; host or cells: left ventricle of Yucatan minipigs, myofibrils prepared in house; assay: Myofibril ATPase assay, porcine ventricle myofibrils; type: biochemical, porcine (Yucatan minipigs); conditions: porcine ventricle myofibrils; Y75 value
Sequence (P79293 whole entry): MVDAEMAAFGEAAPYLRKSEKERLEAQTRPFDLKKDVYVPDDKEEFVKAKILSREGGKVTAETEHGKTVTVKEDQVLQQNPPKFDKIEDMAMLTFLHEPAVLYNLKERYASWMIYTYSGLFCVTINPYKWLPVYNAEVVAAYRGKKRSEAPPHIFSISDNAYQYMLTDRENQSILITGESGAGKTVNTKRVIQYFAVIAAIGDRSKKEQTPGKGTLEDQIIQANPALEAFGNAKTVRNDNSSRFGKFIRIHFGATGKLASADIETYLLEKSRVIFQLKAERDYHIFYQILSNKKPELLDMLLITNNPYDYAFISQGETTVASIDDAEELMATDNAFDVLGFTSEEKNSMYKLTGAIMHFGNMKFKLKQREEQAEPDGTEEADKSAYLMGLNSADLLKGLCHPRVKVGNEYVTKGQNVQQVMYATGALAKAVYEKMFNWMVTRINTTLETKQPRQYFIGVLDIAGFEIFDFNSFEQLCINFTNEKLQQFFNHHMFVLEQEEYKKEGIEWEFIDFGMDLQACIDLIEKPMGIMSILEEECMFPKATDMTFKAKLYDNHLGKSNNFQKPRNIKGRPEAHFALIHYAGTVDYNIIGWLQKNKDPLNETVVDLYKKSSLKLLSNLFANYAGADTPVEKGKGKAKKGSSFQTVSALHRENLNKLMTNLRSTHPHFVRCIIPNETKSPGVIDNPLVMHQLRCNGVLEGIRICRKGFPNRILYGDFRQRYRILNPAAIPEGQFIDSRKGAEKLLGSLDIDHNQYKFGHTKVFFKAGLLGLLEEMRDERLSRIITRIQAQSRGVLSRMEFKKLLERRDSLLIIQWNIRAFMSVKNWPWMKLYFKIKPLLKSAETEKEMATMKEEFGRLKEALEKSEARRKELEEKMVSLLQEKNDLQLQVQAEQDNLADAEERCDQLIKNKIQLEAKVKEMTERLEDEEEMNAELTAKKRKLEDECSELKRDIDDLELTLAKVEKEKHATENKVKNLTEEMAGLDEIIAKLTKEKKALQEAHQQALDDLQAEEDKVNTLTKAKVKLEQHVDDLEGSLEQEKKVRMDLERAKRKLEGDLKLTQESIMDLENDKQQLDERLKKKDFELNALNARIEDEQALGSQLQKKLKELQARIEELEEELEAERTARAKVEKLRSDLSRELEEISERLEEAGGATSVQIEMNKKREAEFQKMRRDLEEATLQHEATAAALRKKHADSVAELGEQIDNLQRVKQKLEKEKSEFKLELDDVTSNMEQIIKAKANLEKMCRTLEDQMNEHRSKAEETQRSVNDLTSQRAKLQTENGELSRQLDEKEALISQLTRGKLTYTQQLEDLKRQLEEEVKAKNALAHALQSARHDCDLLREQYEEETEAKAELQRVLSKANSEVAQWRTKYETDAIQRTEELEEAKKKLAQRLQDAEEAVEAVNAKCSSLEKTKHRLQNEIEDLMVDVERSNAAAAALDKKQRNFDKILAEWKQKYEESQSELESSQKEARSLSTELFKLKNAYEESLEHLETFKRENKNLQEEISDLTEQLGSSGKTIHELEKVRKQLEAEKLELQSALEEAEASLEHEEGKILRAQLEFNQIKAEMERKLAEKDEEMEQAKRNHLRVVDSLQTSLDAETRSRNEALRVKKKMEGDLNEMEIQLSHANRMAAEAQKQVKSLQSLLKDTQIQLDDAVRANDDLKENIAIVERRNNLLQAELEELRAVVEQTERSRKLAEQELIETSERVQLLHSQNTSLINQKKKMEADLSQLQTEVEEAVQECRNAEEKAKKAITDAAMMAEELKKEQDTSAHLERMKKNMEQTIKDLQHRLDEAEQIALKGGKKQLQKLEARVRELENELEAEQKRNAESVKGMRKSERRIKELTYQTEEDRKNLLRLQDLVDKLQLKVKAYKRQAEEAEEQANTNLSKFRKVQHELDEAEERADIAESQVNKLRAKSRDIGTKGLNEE
MEASURED_QUANTITY: Ventricular EC25 (µM)

Take a look at these entries with their results.
COMPOUND	Ventricular EC25 / µM
COc1ccc([C@@H](C)NC(=O)Cc2c(C)c3c(C)nccc3[nH]c2=O)cn1 (single isomer, unassigned)	100.00
Cc1nccc2[nH]c(=O)c(CC(=O)N[C@H](CO)c3ccc(F)cc3F)c(C)c12	100
Cc1nccc2[nH]c(=O)c(CC(=O)N[C@@H](CO)Cc3ccccc3)c(C)c12	100.00
COc1nccc2[nH]c(=O)c([C@H](C)C(=O)N[C@@H](C)c3ccc(F)cc3F)c(C(F)(F)F)c12 (single isomer, unassigned)	17.24
Cc1c(CC(=O)N[C@@H]2COc3cccnc32)c(=O)[nH]c2ccnc(C#N)c12 (single isomer, unassigned)	35.35
Cc1c(CC(=O)N[C@H](CO)c2ccc(F)cc2F)c(=O)[nH]c2ccnc(C(F)(F)F)c12	100.00
Cc1nccc2[nH]c(=O)c(CC(=O)N[C@@H](C)c3c(F)cc(F)cc3F)c(C)c12	70
Cc1nccc2[nH]c(=O)c(C(F)(F)C(=O)N[C@@H](C)c3cnc(C#N)cn3)c(C)c12 (single isomer, unassigned)	34.58
Cc1c(CC(=O)N[C@H](C)c2ncc(F)cc2F)c(=O)[nH]c2ccc(O)nc12 (single isomer, unassigned)	100.00
C[C@H](NC(=O)Cc1c(C(F)(F)F)c2c(C3CC3)nccc2[nH]c1=O)c1ccc(F)cc1F	100.00

P: Cc1c(CC(=O)N[C@H](C)c2ccc(C#N)cn2)c(=O)[nH]c2ccnc(C(F)(F)F)c12
Q: Cc1cnncc1[C@@H](C)NC(=O)Cc1c(C)c2c(C)nccc2[nH]c1=O
R: Cc1nccc2[nH]c(=O)c(CC(=O)N[C@@H](C)c3ccc(F)cc3F)c(C(F)(F)F)c12
S: COc1nccc2[nH]c(=O)c(CC(=O)N[C@@H](C)c3ncc(C#N)cc3F)c(C(F)(F)F)c12 (single isomer, unassigned)
q: Order the records, beginning with the lowest Ventricular EC25 and ending with the highest. List the labels according to the requested ordering.
a: S, R, P, Q
(S: 3.57 µM, R: 11.63 µM, P: 62.81 µM, Q: 100.00 µM)

1: Cc1c(CC(=O)N[C@H](c2ccc(F)cc2F)C(C)(C)O)c(=O)[nH]c2ccnc(C#N)c12 (single isomer, unassigned)
2: Cc1nccc2[nH]c(=O)c([C@@H](C)C(=O)N[C@@H](C)c3ccc(F)cc3F)c(C)c12 (single isomer, unassigned)
q: Look at 1 and 2 . Which one has the lower recorded Ventricular EC25 number? Use the label to indicate which entry you chose.
a: 2

----------
test system: Porcine atria myofibrils (atrial myosin ATPase); test: Myofibril ATPase assay, porcine atria myofibrils; type: biochemical; settings: porcine atria myofibrils; Y75 value (75% activity relative to no compound)
MEASURED_QUANTITY: Atrial EC25 (µM)

Here is how some compounds turned out for Atrial EC25.
COMPOUND	ASSAYED_TARGET	UOM	Atrial EC25
C[C@H](NC(=O)Cc1c(C(F)(F)F)c2c(C3CC3)nccc2[nH]c1=O)c1ccc(C#N)nn1 (single isomer, unassigned)	Porcine atria myofibrils (atrial myosin ATPase)	µM	10.04
C[C@H](NC(=O)[C@@H](C)c1cc2nc(F)ccc2[nH]c1=O)c1ccc(F)cc1F (single isomer, unassigned)	Porcine atria myofibrils (atrial myosin ATPase)	µM	1.16

I: Cc1c(CC(=O)N[C@@H](C)c2ccc(F)cc2F)c(=O)[nH]c2ccnc(Cl)c12
II: COc1cccc([C@@H](C)NC(=O)Cc2c(C)c3c(C)nccc3[nH]c2=O)c1 (single isomer, unassigned)
q: Looking only at measured Atrial EC25, which entry is lower, I or II ? # reply format: chosen label
a: I

----------
test system: Porcine atria myofibrils (atrial myosin ATPase); assay: Myofibril ATPase assay, porcine atria myofibrils; format: biochemical; conditions: Y75 value (no ‡ mark); porcine atria myofibrils
MEASURED_QUANTITY: Atrial EC25 (nM)

COMPOUND	Atrial EC25 / nM
N#Cc1cc(F)c2c(c1)OC[C@H]2NC(=O)C1(c2cc3c(F)c(F)ccc3[nH]c2=O)CC1 (single isomer, unassigned)	440
COc1ccc2[nH]c(=O)c(CC(=O)N[C@H](C)c3ncc(F)cc3F)cc2c1C (single isomer, unassigned)	100000
Cc1c(O)ccc2[nH]c(=O)c(CC(=O)N[C@@H](C)c3ncc(F)cc3F)cc12 (single isomer, unassigned)	7080

P: Cc1c(CC(=O)N[C@H](C)c2ccc(C#N)cc2F)c(=O)[nH]c2ccc(F)c(C#N)c12
Q: Cc1cc(C#N)nnc1[C@@H](C)NC(=O)Cc1c(C)c2c(F)c(F)ccc2[nH]c1=O
R: C[C@H](NC(=O)Cc1c(C2CC2)c2c(F)cccc2[nH]c1=O)c1ncc(C#N)cc1F
S: C[C@@H](NC(=O)Cc1c(C#N)c2cc(F)c(F)cc2[nH]c1=O)c1ccc(C#N)cn1 (single isomer, unassigned)
T: Cc1ccc2[nH]c(=O)c(CC(=O)N[C@H](C)c3ncc(C#N)cn3)cc2c1F (single isomer, unassigned)
q: Could you please order the items by Atrial EC25, going from the lowest number to the highest? Enter labels, ranked according to the request.
a: P, R, Q, T, S
(P: 110 nM, R: 290 nM, Q: 590 nM, T: 16080 nM, S: 25330 nM)

----------
system: Porcine atria myofibrils (atrial myosin ATPase); assay: Myofibril ATPase assay, porcine atria myofibrils; type: biochemical; details: Y75 value (no ‡ mark); porcine atria myofibrils
MEASURED_QUANTITY: Atrial EC25 (µM)

Example compounds with recorded Atrial EC25:
COMPOUND	VAL
C[C@H](NC(=O)[C@H](C)c1c(C(F)(F)F)c2cc(F)ccc2[nH]c1=O)c1ccc(F)cc1F (single isomer, unassigned) [compound 100]	0.06
Cc1c(C2(C(=O)N[C@H]3CCc4cc(C#N)cnc43)CC2)c(=O)[nH]c2ccc(F)cc12 (single isomer, unassigned) [compound 2504]	100.00
CC(C(=O)N[C@@H](C)c1ccc(F)cc1F)c1c(C(F)(F)F)c2cc(F)ccc2[nH]c1=O (stereo partly shown) [compound 113]	0.10
Cc1c(C(F)(F)C(=O)N[C@H](C)c2ncc(C#N)cn2)c(=O)[nH]c2cccc(C#N)c12 (single isomer, unassigned) [compound 4838]	0.92
C[C@H](NC(=O)Cc1c(C2CC2)c2cc(F)ccc2[nH]c1=O)c1ncc(C#N)cn1 (single isomer, unassigned) [compound 2064]	77.71
C[C@@H](NC(=O)Cc1cc2cc(F)ccc2[nH]c1=O)c1ccc(C#N)cn1 [compound 1125]	18.28
C[C@H](NC(=O)Cc1cc2c(F)c(F)ccc2[nH]c1=O)c1ncc(C#N)cc1F [compound 36]	0.02

A: C[C@@H](NC(=O)Cc1cc2cc(F)c(F)cc2[nH]c1=O)c1ncc(C#N)cn1 (single isomer, unassigned) [compound 2035]
B: N#Cc1cnc2c(c1)CC[C@H]2NC(=O)Cc1cc2c(F)c(F)ccc2[nH]c1=O (single isomer, unassigned) [compound 7]
C: C[C@H](NC(=O)Cc1cc2cc(F)ccc2[nH]c1=O)c1ccc(C#N)cn1 [compound 1126]
q: Ordering: ascending Atrial EC25. Response format: the labels, sorted as the prompt asks.
a: A, B, C

----------
target: Porcine ventricle myofibrils (ventricular myosin ATPase) (Sus scrofa); construct: Myofibrils from porcine cardiac muscle was isolated from the left ventricle of Yucatan minipigs; tissue Exemplar Genetics; host or cells: left ventricle of Yucatan minipigs, myofibrils prepared in house; test: Myofibril ATPase assay, porcine ventricle myofibrils; format: biochemical, porcine (Yucatan minipigs); conditions: Y75 value (no ‡ mark); porcine ventricle myofibrils
MEASURED_QUANTITY: Ventricular EC25 (µM)

The following molecules have reported results that may help.
MOLECULE	ASSAYED_TARGET	Ventricular EC25 [µM]
O=C(Cc1cc2cc(F)ccc2[nH]c1=O)N1CC[C@H]2C[C@@H]1c1ccccc12 (single isomer, unassigned) [compound 4502]	Porcine ventricle myofibrils (ventricular myosin ATPase) (Sus scrofa)	0.63
Cc1c(CC(=O)N[C@H](C)c2ncc(C#N)cn2)c(=O)[nH]c2ccc(F)c(C3CC3)c12 (single isomer, unassigned) [compound 2059]	Porcine ventricle myofibrils (ventricular myosin ATPase) (Sus scrofa)	56.97

a: Cc1nc(C#N)ccc1[C@H](C)NC(=O)Cc1c(C)c2cc(F)ccc2[nH]c1=O [compound 1051]
b: C[C@@H](NC(=O)C(F)(F)c1cc2c(F)c(F)ccc2[nH]c1=O)c1cccc(C#N)n1 (single isomer, unassigned) [compound 2571]
q: Choose between a and b : whose measured Ventricular EC25 value is numerically larger? # reply format: chosen label
a: b
